Below, each of the molecules is paired with its reported pIC50 value.
# measurement_target: affinity purified β2GPI-dependent antiphospholipid antibody
# measurement_notes: Competitive inhibition ELISA: recombinant β2GPI proteins compete for antibody binding to coated full length recombinant β2GPI
# Set-up: species or system human
# test_conditions: Ab 6641; read-out: 50% (concentration to give 50% inhibition)
pIC50: −log10 of the molar value.
value_type: pIC50

molecule	reported_value
123--: recombinant β2GPI deletion mutant with domains 1, 2, 3 (protein) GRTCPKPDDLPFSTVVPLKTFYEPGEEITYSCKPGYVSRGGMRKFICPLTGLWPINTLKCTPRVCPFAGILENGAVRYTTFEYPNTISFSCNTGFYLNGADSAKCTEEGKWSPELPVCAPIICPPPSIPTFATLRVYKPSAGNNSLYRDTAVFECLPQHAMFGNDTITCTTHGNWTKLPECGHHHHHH	5.40
---45: recombinant β2GPI deletion mutant with domains 4, 5 (protein) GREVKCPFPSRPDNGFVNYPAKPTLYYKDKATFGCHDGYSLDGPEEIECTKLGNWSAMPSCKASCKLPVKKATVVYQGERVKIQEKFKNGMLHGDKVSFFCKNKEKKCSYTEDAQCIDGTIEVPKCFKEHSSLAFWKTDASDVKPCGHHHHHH	< 5.30
--345: recombinant β2GPI deletion mutant with domains 3, 4, 5 (protein) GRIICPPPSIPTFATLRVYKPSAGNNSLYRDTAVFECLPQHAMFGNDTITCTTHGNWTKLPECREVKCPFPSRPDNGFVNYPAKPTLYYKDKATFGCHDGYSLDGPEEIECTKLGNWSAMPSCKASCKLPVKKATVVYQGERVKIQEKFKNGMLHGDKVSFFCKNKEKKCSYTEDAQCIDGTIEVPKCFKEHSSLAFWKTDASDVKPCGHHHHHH	< 4.82

The measurements presented in this section are drawn from patent US6858210B1.
